The measured values listed here are drawn from PubChem BioAssay AID1963962.

Test system: 967376-340-R-J2-PDC multicell spheroid viability
Experiment: Anticancer human tumor 967376-340-R-J2-PDC patient-derived colon adenocarcinoma cell line growth inhibition [PI3K]
Conditions: second compound 0.1 µM; first compound 0.316 µM; active compounds read low
Doc: threshold 90% (exclusive). Items with viability, T/C beneath it return Y; others return N.

Ask | Confirm or reject: viability, T/C of C#Cc1c(F)ccc2cc(O)cc(-c3ncc4c(N5CC6CCC(C5)N6)nc(OCC56CCCN5CC(F)C6)nc4c3F)c12 (stereo unspecified) + COc1c(OCCCN2CCOCC2)ccc2c3n(c(=NC(=O)c4cnc(N)nc4)nc12)CCN3 lies strictly below 90%
Reply | Y

Ask | Confirm or reject: viability, T/C of C[C@@H](NC(=O)c1ncnc(N)c1Cl)c1ncc(C(=O)Nc2cc(C(F)(F)F)c(Cl)cn2)s1 + Cc1nc(NC(=O)N2CCCC2C(N)=O)sc1-c1ccnc(C(C)(C)C(F)(F)F)c1 lies strictly below 90%
Reply | Y

Ask | Confirm or reject: viability, T/C of CC(C)NCC(C(=O)N1CCN(c2ncnc3c2C(C)CC3O)CC1)c1ccc(Cl)cc1 (stereo unspecified) + Cc1nc(NC(=O)N2CCCC2C(N)=O)sc1-c1ccnc(C(C)(C)C(F)(F)F)c1 lies strictly below 90%
Reply | Y

Ask | Confirm or reject: viability, T/C of CC(Cn1ccc(-c2ccc(C#N)c(Cl)c2)n1)NC(=O)c1cc(C(C)O)[nH]n1 (stereo unspecified) + CC(Nc1ccc2c(c1)OCCn1cc(N3C(=O)OCC3C(F)F)nc1-2)C(N)=O lies strictly below 90%
Reply | Y

Ask | Confirm or reject: viability, T/C of C#Cc1c(F)ccc2cc(O)cc(-c3ncc4c(N5CC6CCC(C5)N6)nc(OCC56CCCN5CC(F)C6)nc4c3F)c12 (stereo unspecified) + Cc1nc(NC(=O)N2CCCC2C(N)=O)sc1-c1ccnc(C(C)(C)C(F)(F)F)c1 lies strictly below 90%
Reply | Y

----------
Test system: 967376-340-R-J2-PDC multicell spheroid viability
Assay: Anticancer human tumor 967376-340-R-J2-PDC cell line growth inhibition [PI3K];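 further: luminescence used as surrogate of cell viability; spheroids exposed to agents for 7 days before read-out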
Settings: second compound 0.0316 µM; first compound 3.16 µM; active compounds read low
Doc: threshold 80% (exclusive). Items with viability, T/C beneath it return True; others return False.

Ask | Confirm or reject: viability, T/C of CC(Cn1ccc(-c2ccc(C#N)c(Cl)c2)n1)NC(=O)c1cc(C(C)O)[nH]n1 (stereo not given) + CC(Nc1ccc2c(c1)OCCn1cc(N3C(=O)OCC3C(F)F)nc1-2)C(N)=O lies strictly below 80%
Reply | False

Ask | Confirm or reject: viability, T/C of CC(Cn1ccc(-c2ccc(C#N)c(Cl)c2)n1)NC(=O)c1cc(C(C)O)[nH]n1 (stereo not given) + Cc1nc(NC(=O)N2CCCC2C(N)=O)sc1-c1ccnc(C(C)(C)C(F)(F)F)c1 lies strictly below 80%
Reply | False

Ask | Confirm or reject: viability, T/C of CC1(C)CCC(Nc2ncc(C(F)(F)F)c(-c3c[nH]c4c(P(C)(C)=O)c(C#N)ccc34)n2)CN1 (stereo not given) + CC(Nc1ccc2c(c1)OCCn1cc(N3C(=O)OCC3C(F)F)nc1-2)C(N)=O lies strictly below 80%
Reply | True

Ask | Confirm or reject: viability, T/C of CNC(=O)c1ccc(N2C(=S)N(c3ccc(C#N)c(C(F)(F)F)c3)C(=O)C2(C)C)cc1F + CC(Nc1ccc2c(c1)OCCn1cc(N3C(=O)OCC3C(F)F)nc1-2)C(N)=O lies strictly below 80%
Reply | False

Next:
Ask | Confirm or reject: viability, T/C of CC1(C)CCC(CN2CCN(c3ccc(C(=O)NS(=O)(=O)c4ccc(NCC5CCOCC5)c([N+](=O)[O-])c4)c(Oc4cnc5[nH]ccc5c4)c3)CC2)=C(c2ccc(Cl)cc2)C1 + CC(Nc1ncnc2nc[nH]c12)c1cc2cccc(Cl)c2c(=O)n1-c1ccccc1 lies strictly below 80%
Reply | True

----------
System: 967376-340-R-J2-PDC multicell spheroid viability
Assay: Anticancer human tumor 967376-340-R-J2-PDC cell line growth inhibition [PI3K];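 further: luminescence used as surrogate of cell viability; spheroids exposed to agents for 7 days before read-out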
Settings: second compound 0.316 µM; first compound 0.0316 µM; active compounds read low
Source text: Combinatorial screen of targeted agents with the PI3K inhibitors inavolisib, alpelisib, duvelisib, and copanlisib in multi-cell type tumor spheroids A high-throughput screen of multi-cell type tumor spheroids was designed to identify active combinations of targeted small molecules and PI3K pathway inhibitors. […] Compounds. […] If the clinical Cmax for an agent had not been determined, the highest concentration tested was 10 microM. […]
Recorded viability, T/C values for a group of compounds are listed next.
Respond with the bare value in %.

Before answering, review these 2 worked examples.
Ask | Quick check: viability, T/C of CC(Cn1ccc(-c2ccc(C#N)c(Cl)c2)n1)NC(=O)c1cc(C(C)O)[nH]n1 (stereo not drawn) + CC(Nc1ncnc2nc[nH]c12)c1cc2cccc(Cl)c2c(=O)n1-c1ccccc1 ?
Reply | 112

Ask | Quick check: viability, T/C of CC1(C)CCC(Nc2ncc(C(F)(F)F)c(-c3c[nH]c4c(P(C)(C)=O)c(C#N)ccc34)n2)CN1 (stereo not drawn) + Cc1nc(NC(=O)N2CCCC2C(N)=O)sc1-c1ccnc(C(C)(C)C(F)(F)F)c1 ?
Reply | 67.5

Turning now to a further compound:
Ask | Quick check: viability, T/C of Cn1ncnc1[C@H]1c2n[nH]c(=O)c3cc(F)cc(c23)N[C@@H]1c1ccc(F)cc1 + CC(Nc1ncnc2nc[nH]c12)c1cc2cccc(Cl)c2c(=O)n1-c1ccccc1 ?
Reply | 102

----------
Test system: 967376-340-R-J2-PDC multicell spheroid viability
Experiment: Anticancer human tumor 967376-340-R-J2-PDC cell line growth inhibition [PI3K];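 further: luminescence used as surrogate of cell viability; spheroids exposed to agents for 7 days before read-out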
Settings: second compound 0.01 µM; first compound 10 µM; active compounds read low
Recorded viability, T/C values for a group of compounds are listed next.
Respond with the bare value in %.

Ask | Quick check: viability, T/C of CNC(=O)c1ccc(N2C(=S)N(c3ccc(C#N)c(C(F)(F)F)c3)C(=O)C2(C)C)cc1F + COc1c(OCCCN2CCOCC2)ccc2c3n(c(=NC(=O)c4cnc(N)nc4)nc12)CCN3 ?
Reply | 120

Ask | Quick check: viability, T/C of CC1(C)CCC(CN2CCN(c3ccc(C(=O)NS(=O)(=O)c4ccc(NCC5CCOCC5)c([N+](=O)[O-])c4)c(Oc4cnc5[nH]ccc5c4)c3)CC2)=C(c2ccc(Cl)cc2)C1 + CC(Nc1ccc2c(c1)OCCn1cc(N3C(=O)OCC3C(F)F)nc1-2)C(N)=O ?
Reply | 57.3

Ask | Quick check: viability, T/C of CCCS(=O)(=O)Nc1ccc(F)c(C(=O)c2c[nH]c3ncc(-c4ccc(Cl)cc4)cc23)c1F + CC(Nc1ccc2c(c1)OCCn1cc(N3C(=O)OCC3C(F)F)nc1-2)C(N)=O ?
Reply | 49.6

Ask | Quick check: viability, T/C of CCCS(=O)(=O)Nc1ccc(F)c(C(=O)c2c[nH]c3ncc(-c4ccc(Cl)cc4)cc23)c1F + COc1c(OCCCN2CCOCC2)ccc2c3n(c(=NC(=O)c4cnc(N)nc4)nc12)CCN3 ?
Reply | 61.8

Ask | Quick check: viability, T/C of CC(C)NCC(C(=O)N1CCN(c2ncnc3c2C(C)CC3O)CC1)c1ccc(Cl)cc1 (stereo unspecified) + CC(Nc1ccc2c(c1)OCCn1cc(N3C(=O)OCC3C(F)F)nc1-2)C(N)=O ?
Reply | 81.2

Ask | Quick check: viability, T/C of C[C@@H](NC(=O)c1ncnc(N)c1Cl)c1ncc(C(=O)Nc2cc(C(F)(F)F)c(Cl)cn2)s1 + CC(Nc1ccc2c(c1)OCCn1cc(N3C(=O)OCC3C(F)F)nc1-2)C(N)=O ?
Reply | 130

Ask | Quick check: viability, T/C of Cn1nccc1Nc1nccc(-c2ccn(C(CO)c3ccc(Cl)c(F)c3)c(=O)c2)n1 (stereo unspecified) + CC(Nc1ccc2c(c1)OCCn1cc(N3C(=O)OCC3C(F)F)nc1-2)C(N)=O ?
Reply | 102

Ask | Quick check: viability, T/C of CC(Cn1ccc(-c2ccc(C#N)c(Cl)c2)n1)NC(=O)c1cc(C(C)O)[nH]n1 (stereo unspecified) + CC(Nc1ccc2c(c1)OCCn1cc(N3C(=O)OCC3C(F)F)nc1-2)C(N)=O ?
Reply | 117

Next:
Ask | Quick check: viability, T/C of Cn1ncc(Cl)c1-c1cc(C(=O)NC(CN)Cc2cccc(F)c2)sc1Cl (stereo unspecified) + CC(Nc1ccc2c(c1)OCCn1cc(N3C(=O)OCC3C(F)F)nc1-2)C(N)=O ?
Reply | 71.3

Ask | Quick check: viability, T/C of CNC(=O)c1ccc(N2C(=S)N(c3ccc(C#N)c(C(F)(F)F)c3)C(=O)C2(C)C)cc1F + CC(Nc1ccc2c(c1)OCCn1cc(N3C(=O)OCC3C(F)F)nc1-2)C(N)=O ?
Reply | 136

Ask | Quick check: viability, T/C of CC1(C)CCC(CN2CCN(c3ccc(C(=O)NS(=O)(=O)c4ccc(NCC5CCOCC5)c([N+](=O)[O-])c4)c(Oc4cnc5[nH]ccc5c4)c3)CC2)=C(c2ccc(Cl)cc2)C1 + COc1c(OCCCN2CCOCC2)ccc2c3n(c(=NC(=O)c4cnc(N)nc4)nc12)CCN3 ?
Reply | 55.8

Ask | Quick check: viability, T/C of CC1(C)CCC(Nc2ncc(C(F)(F)F)c(-c3c[nH]c4c(P(C)(C)=O)c(C#N)ccc34)n2)CN1 (stereo unspecified) + COc1c(OCCCN2CCOCC2)ccc2c3n(c(=NC(=O)c4cnc(N)nc4)nc12)CCN3 ?
Reply | 49.4

Ask | Quick check: viability, T/C of Cn1nccc1Nc1nccc(-c2ccn(C(CO)c3ccc(Cl)c(F)c3)c(=O)c2)n1 (stereo unspecified) + COc1c(OCCCN2CCOCC2)ccc2c3n(c(=NC(=O)c4cnc(N)nc4)nc12)CCN3 ?
Reply | 97.8

Ask | Quick check: viability, T/C of C[C@@H](NC(=O)c1ncnc(N)c1Cl)c1ncc(C(=O)Nc2cc(C(F)(F)F)c(Cl)cn2)s1 + COc1c(OCCCN2CCOCC2)ccc2c3n(c(=NC(=O)c4cnc(N)nc4)nc12)CCN3 ?
Reply | 91.3

Ask | Quick check: viability, T/C of CC(Cn1ccc(-c2ccc(C#N)c(Cl)c2)n1)NC(=O)c1cc(C(C)O)[nH]n1 (stereo unspecified) + COc1c(OCCCN2CCOCC2)ccc2c3n(c(=NC(=O)c4cnc(N)nc4)nc12)CCN3 ?
Reply | 86.1

Ask | Quick check: viability, T/C of C=CC(=O)N1CCN(c2nc(=O)n(-c3c(C)ccnc3C(C)C)c3nc(-c4c(O)cccc4F)c(F)cc23)C(C)C1 (stereo unspecified) + COc1c(OCCCN2CCOCC2)ccc2c3n(c(=NC(=O)c4cnc(N)nc4)nc12)CCN3 ?
Reply | 73.5
